Biological target: UniProtKB P32245
Sequence (P32245 whole entry): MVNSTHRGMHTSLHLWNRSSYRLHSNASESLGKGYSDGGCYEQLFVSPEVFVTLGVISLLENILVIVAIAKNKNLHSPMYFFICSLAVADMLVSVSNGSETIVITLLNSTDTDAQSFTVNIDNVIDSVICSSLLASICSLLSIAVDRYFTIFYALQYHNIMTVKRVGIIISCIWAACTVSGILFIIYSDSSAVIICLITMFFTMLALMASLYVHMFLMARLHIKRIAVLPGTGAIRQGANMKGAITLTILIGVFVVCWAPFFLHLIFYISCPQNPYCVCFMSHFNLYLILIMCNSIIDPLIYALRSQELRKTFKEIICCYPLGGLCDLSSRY
Assay: Displacement of [125I]Nle4-D-Phe7-alpha-MSH from human MC4 receptor expressed in COS1 cells
assay metric: IC50 (nM)
Hi! Could you send only the number? It should be in nM, unit omitted.

Field: example entries. Status: answers known.
molecule | IC50, nM
CC(C)N1CCN(C(CN2CCN(CCCc3ccccc3-c3ccc(-c4ccccc4)cc3)CC2)c2ccc(F)cc2)CC1 (racemic) | 228
CN1CCN(C(CN2CCN(CCCCc3cccc4ccccc34)CC2)c2ccc(C(F)(F)F)cc2)CC1 (racemic) | 226

Q: Which measured IC50 value corresponds to COc1ccc(CCCCN2CCN(CC(c3ccc(F)cc3)N3CCN(C)CC3)CC2)c2ccccc12 (racemic) ?
A: 228

Q: Which measured IC50 value corresponds to CC(C)N1CCN(C(CN2CCN(CCCCc3cccc4ccccc34)CC2)c2ccc(F)cc2)CC1 (racemic) ?
A: 72.3
